B1: CPEB3 Ribozyme (parent)
chain: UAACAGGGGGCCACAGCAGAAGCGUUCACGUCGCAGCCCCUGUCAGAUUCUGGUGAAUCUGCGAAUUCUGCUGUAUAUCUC

- Variants of: B1
- ASSAY_INFO: self-cleavage, relative activity (ratio to wild type); higher = more cleavage; in vitro, sequencing
Use condition met when the recorded self-cleavage is no lower than 0.3; use condition not met when it is lower.

For this variant, is measured self-cleavage 0.3 or higher? A3U G70A
condition met

Given C40A A77G , state whether its self-cleavage is at least 0.3.
condition not met

Does self-cleavage meet or surpass 0.3 for U26C A28C ?
condition not met

Reported self-cleavage at or above 0.3? U41G U74A
condition met

Test whether the variant C11U A47U records self-cleavage of 0.3 or higher.
condition met

Reference for the values: the RNAGym collection of RNA variant scans (doi:10.1093/nar/gkz1192)
